Values were extracted from patent US20180186742A1.

Parameter: pest or weed control at 100 ppm. Scope: all listed entries.
# Test system: Zymoseptoria tritici
# assay_comment: Leaf blotch of wheat (SEPTTR), disease control on wheat seedlings
# Format: in vivo
# measurement_context: 72 h, high volume application at 100 ppm, 3 Day Curative, read-out: SEPTTR disease control, 3DC, HV activity
# Experimental: Technical grades of materials were dissolved in acetone, which were then mixed with nine volumes of water containing 110 ppm Triton X-100. The fungicide solutions were applied onto wheat seedlings using an automated booth sprayer to run-off. […] All fungicides were evaluated using the aforementioned method for their activity vs. all target diseases, unless stated otherwise. […] Percent disease control was calculated using the ratio of disease severity on treated plants relative to untreated plants.

- compound: "COc1ccnc(C(=O)N[C@@H](C)C(=O)O[C@@H](C)[C@H](c2ccc(OC(C)C)cc2)C(C)C)c1O [Compound 336]"
  pest or weed control at 100 ppm: "< 80%"
- compound: "COc1cc(F)ccc1[C@@H](C1CCCC1)[C@H](C)OC(=O)[C@H](C)NC(=O)c1nccc(OC)c1O [Compound 140]"
  pest or weed control at 100 ppm: "< 80%"
- compound: "COc1cc[n+]([O-])c(C(=O)N[C@@H](C)C(=O)O[C@@H](C)[C@@H](c2ccc(C)cc2C)C(C)C)c1O [Compound 211]"
  pest or weed control at 100 ppm: "< 80%"

Challenge: Consider the compound COc1ccnc(C(=O)N[C@@H](C)C(=O)O[C@@H](C)[C@H](c2ccccc2F)C(C)C)c1O [Compound 323] and give its measured pest or weed control at 100 ppm.
Response given: > 80%

Challenge: Consider the compound CCC(CC)[C@@H](c1ccccc1)C(C)OC(=O)[C@H](C)NC(=O)c1nccc(OC)c1O (stereo partly drawn) [Compound 112] and give its measured pest or weed control at 100 ppm.
Response given: > 80%

Challenge: Consider the compound COc1ccnc(C(=O)N[C@@H](C)C(=O)O[C@@H](C)[C@H](c2ccc(C)cc2F)C(C)C)c1O [Compound 329] and give its measured pest or weed control at 100 ppm.
Response given: < 80%

Challenge: Consider the compound COc1ccnc(C(=O)N[C@@H](C)C(=O)O[C@@H](C)[C@H](c2ccc(C)cc2C)C(C)C)c1O [Compound 325] and give its measured pest or weed control at 100 ppm.
Response given: < 80%

Challenge: Consider the compound COc1cc(F)ccc1[C@H](C1CCCCC1)[C@H](C)OC(=O)[C@H](C)NC(=O)c1nccc(OC)c1O [Compound 143] and give its measured pest or weed control at 100 ppm.
Response given: < 80%

Challenge: Consider the compound CCC(C)[C@H](c1ccc(F)cc1OC)[C@H](C)OC(=O)[C@H](C)NC(=O)c1nccc(OC)c1O (stereo partly drawn) [Compound 141] and give its measured pest or weed control at 100 ppm.
Response given: > 80%

Challenge: Consider the compound COc1cc(F)ccc1[C@H](C1CCC1)[C@H](C)OC(=O)[C@H](C)NC(=O)c1nccc(OC)c1O [Compound 147] and give its measured pest or weed control at 100 ppm.
Response given: < 80%

Challenge: Consider the compound COc1ccnc(C(=O)N[C@@H](C)C(=O)O[C@@H](C)[C@@H](c2ccc(F)cc2F)C(C)C)c1O [Compound 331] and give its measured pest or weed control at 100 ppm.
Response given: < 80%

Challenge: Consider the compound CCC(CC)[C@@H](c1ccc(F)cc1C)[C@H](C)OC(=O)[C@H](C)NC(=O)c1nccc(OC)c1O [Compound 125] and give its measured pest or weed control at 100 ppm.
Response given: > 80%

Challenge: Consider the compound COc1ccnc(C(=O)N[C@@H](C)C(=O)O[C@@H](C)[C@H](c2ccc(F)cc2C)C2CCCCC2)c1O [Compound 123] and give its measured pest or weed control at 100 ppm.
Response given: > 80%

Challenge: Consider the compound COc1cc(F)ccc1[C@@H](C(C)C)[C@H](C)OC(=O)[C@H](C)NC(=O)c1nccc(OC)c1O [Compound 138] and give its measured pest or weed control at 100 ppm.
Response given: < 0%

Challenge: Consider the compound CCC(CC)[C@@H](c1ccc(F)cc1OC)[C@H](C)OC(=O)[C@H](C)NC(=O)c1nccc(OC)c1O [Compound 145] and give its measured pest or weed control at 100 ppm.
Response given: > 80%
